- assaySystem: Muscarinic acetylcholine receptor M2 (Rattus norvegicus)
- Sequence (P10980 whole entry): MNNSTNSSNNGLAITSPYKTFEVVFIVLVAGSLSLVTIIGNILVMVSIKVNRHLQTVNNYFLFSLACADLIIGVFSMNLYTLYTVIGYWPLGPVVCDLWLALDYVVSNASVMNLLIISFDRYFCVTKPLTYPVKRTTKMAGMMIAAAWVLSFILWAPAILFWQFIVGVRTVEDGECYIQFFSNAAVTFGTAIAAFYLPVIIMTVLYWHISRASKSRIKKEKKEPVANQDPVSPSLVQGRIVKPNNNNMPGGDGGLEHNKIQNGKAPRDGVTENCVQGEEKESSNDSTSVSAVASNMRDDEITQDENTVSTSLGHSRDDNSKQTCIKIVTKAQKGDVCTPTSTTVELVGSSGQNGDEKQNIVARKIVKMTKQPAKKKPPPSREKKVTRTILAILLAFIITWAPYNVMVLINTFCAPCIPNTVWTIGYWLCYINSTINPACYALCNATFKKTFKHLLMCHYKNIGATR
measuredProperty: pKi
# log scale: pKi equals minus log10 of the concentration in mol/L

Reported pKi of O=C(Nc1ccccc1-c1ccccc1)O[C@H]1CN2CCC1CC2 : 8.12

====

Catalogue of compounds with associated remaining at 2 h, 20 µM
- assayDetails: Metabolic stability in Sprague-Dawley rat liver microsomes assessed as parent compound remaining at 20 uM measured for 120 mins by HPLC/MS analysis relative to control
- Type: ADME, Microsome
- details: read-out: Stability

Worked examples, 3 compounds total:
1. C[N+]12CCC(CC1)[C@@H](OC(=O)Nc1ccc(F)cc1-c1cccc(Cl)c1)C2 ... 65%
2. C[N+]12CCC(CC1)[C@@H](OC(=O)Nc1ccc(F)cc1-c1ccc(F)c(Cl)c1)C2 ... 63%
3. O=C(Nc1ccc(F)cc1-c1cccc(Cl)c1)OCC1CCNCC1 ... 53%

Turning to the following compound.
Measured remaining at 2 h, 20 µM, O=C(Nc1ccc(F)cc1-c1ccc(F)c(Cl)c1)OCC1CCNCC1 : 74%

====

- assaySystem: Muscarinic acetylcholine receptor M3 (Rattus norvegicus, UniProt P08483)
- Sequence (P08483 whole entry): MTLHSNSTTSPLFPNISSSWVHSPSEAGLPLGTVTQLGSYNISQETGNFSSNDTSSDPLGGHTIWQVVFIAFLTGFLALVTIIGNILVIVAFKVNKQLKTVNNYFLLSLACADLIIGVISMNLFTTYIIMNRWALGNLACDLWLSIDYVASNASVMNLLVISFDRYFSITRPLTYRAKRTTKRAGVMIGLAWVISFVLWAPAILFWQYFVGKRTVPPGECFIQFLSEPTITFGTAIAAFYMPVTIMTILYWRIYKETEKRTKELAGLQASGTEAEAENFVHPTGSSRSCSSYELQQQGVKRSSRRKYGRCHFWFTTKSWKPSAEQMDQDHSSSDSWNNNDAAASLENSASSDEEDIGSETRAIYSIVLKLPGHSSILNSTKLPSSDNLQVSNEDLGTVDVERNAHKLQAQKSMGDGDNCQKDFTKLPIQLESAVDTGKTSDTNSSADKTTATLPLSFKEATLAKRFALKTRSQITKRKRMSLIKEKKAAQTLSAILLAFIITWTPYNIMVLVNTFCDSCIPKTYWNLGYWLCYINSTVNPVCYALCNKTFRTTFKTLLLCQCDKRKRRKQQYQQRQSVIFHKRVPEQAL
measuredProperty: Ki
Note: a bare number is incomplete; add the unit.

The value of Ki measured for the compound O=C(Nc1ccccc1-c1ccccc1)O[C@H]1CN2CCC1CC2 turned out to be 0.47 nM

Values from ChEMBL document CHEMBL4602697
